Each recorded value in this set is attributed to patent US20210139545A1.

# tested-target: T1, E. coli alkaline phosphatase Strep-tag®II fusion protein (E. coli, UniProt P00634 22-471 = phosphatase)
# T1 construct: mature; also called BAP-StrepII; BAP-StrepIII
# T1 sequence (P00634 22-471): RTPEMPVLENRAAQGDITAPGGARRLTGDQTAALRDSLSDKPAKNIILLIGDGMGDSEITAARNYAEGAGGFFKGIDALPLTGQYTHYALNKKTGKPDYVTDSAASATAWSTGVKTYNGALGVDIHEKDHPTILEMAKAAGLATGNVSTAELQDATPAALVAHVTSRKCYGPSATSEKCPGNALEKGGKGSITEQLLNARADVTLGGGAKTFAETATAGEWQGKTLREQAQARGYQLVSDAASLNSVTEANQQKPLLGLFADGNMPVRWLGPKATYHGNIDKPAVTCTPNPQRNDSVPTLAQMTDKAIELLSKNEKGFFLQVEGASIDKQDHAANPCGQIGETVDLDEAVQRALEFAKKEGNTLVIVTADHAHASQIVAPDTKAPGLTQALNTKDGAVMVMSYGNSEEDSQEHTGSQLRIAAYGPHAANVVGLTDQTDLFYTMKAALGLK
# protocol: ELISA, second experiment, mutein coated, BAP-StrepII titrated
pKd: −log10 of the molar value.
Listed binders paired with reported pKd

binder	pKd
mutein m4001 (designed binder, Library 2 clone) EAGITGTWYNQLGSTFIVTAGADGALTGTYACGRGNAECRYVLTGRYDSAPATDGSGTALGWTVAWKNNYRNAHSATTWSGQYVGGAEARINTQWLLTSGTTEANAWKSTLVGHDTFTKVKPSAAS	7.57
mutein“1”-m4 (designed binder, Library 3 clone on mutein “1”) EAGITGTWYNQLGSTFIVTAGADGALTGTYVTARGNAESRYVLTGRYDSAPATDGSGTALGWTVAWKNNYRNAHSATTWSGQYVGGAEARINTQWLLTSGTTEDNAGFSTLVGHDTFTKVKPSAAS	7.92
mutein“1”-m23 (designed binder, Library 3 clone on mutein “1”) EAGITGTWYNQLGSTFIVTAGADGALTGTYVTARGNAESRYVLTGRYDSAPATDGSGTALGWTVAWKNNYRNAHSATTWSGQYVGGAEARINTQWLLTSGTTEYNAYASTLVGHDTFTKVKPSAAS	7.89
mutein m1-9 (designed binder) EAGITGTWYNQLGSTFIVTAGADGALTGTYVTARGNAESRYVLTGRYDSAPATDGSGTALGWTVAWKNNYRNAHSATTWSGQYVGGAEARINTQWLLTSGTTEENAGYSTLVGHDTFTKVKPSAAS	7.60
